- measurementProtocol: Components of the Cytosolic LPS Sensing Pathway: Gene Identification via Genome-wide siRNA Screen;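 also: robust z of the log signal after scaling to non-targeting control siRNA wells of the plate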
- statedConditions: RAW264.7 macrophages, IL-1a HTRF, actives lie on both sides, screened at 100 nM (by protocol), cells primed 5 h with Pam3CSK4 first
The campaign covered roughly 53,000 sequences. About 3,700 (7%) were called active.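 The calls were made as follows: active = gene knockdowns whose robust z-score for IL-1 alpha signal is at least 2 or at most -2, so actives lie on both sides; inactive = the rest.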 The sample as a whole holds a higher share of actives than the screen did.
Form entry, call: pick from active, inactive

Q: Called result for GGAUUCUGAACACUUUUUCTT against Pot1a
Ans: active

Q: Next sequence up: GGACGUGUAGCUUGGAAUATT against Rnf26
Ans: active

Q: Next sequence up: GGUUUUUGCUGAGUCUUGCTT against Olfr299
Ans: inactive

Q: Next sequence up: CCCUGAACAGGUCAUCUGUTT against Ctps2
Ans: inactive

Q: Next sequence up: CCAUUAACGUAAAUUCUGUTT against Ankrd13c
Ans: inactive

Q: Next sequence up: GGUGGCAGACUGUGUUUAUTT against B3gnt8
Ans: active

Q: Next sequence up: GGACACAUGGAAGAGGAUUTT against Rnf139
Ans: inactive

Q: Next sequence up: GGAUUUGUACACACUUCAATT against Tcim
Ans: inactive

Q: Next sequence up: CCCUAAUUCUUAGGCCUUUTT against Bloc1s3
Ans: inactive

Q: Next sequence up: GGAGAGGAACAGGAACAGATT against Ankrd9
Ans: inactive

Q: Next sequence up: GGUGGAGCAGAUGAAGAACTT against Hspbp1
Ans: inactive

Q: Next sequence up: GGGAGGAGAAAAAUAUUCUTT against Olfr1094
Ans: inactive

Q: Next sequence up: CCUGUUUAGCAUCUGGGAGTT against Gpr1
Ans: active

Q: Next sequence up: GGAGAACCGUAACAACAACTT against Cacna1a
Ans: inactive

Q: Next sequence up: GGAUAUCGAGGAGAUGAUCTT against Aoc3
Ans: active

Q: Next sequence up: GCUUCCCUGCCGUGAUGAUTT against Git1
Ans: inactive

Q: Next sequence up: GGAGGUCUACAUUUAUUAATT against Dera
Ans: inactive

Q: Next sequence up: CCGUACAUCGAGAAAUACATT against Hal
Ans: active

Q: Next sequence up: GGUUAUAUCCAUGUGACACTT against Nkg7
Ans: inactive

Q: Next sequence up: GGCAAGAGAAUUCAGAUCUTT against Slc5a1
Ans: active

Q: Next sequence up: GGAACACAAAAGCAAAGAUTT against Prpf38b
Ans: active

Q: Next sequence up: CCAUAUCAGGCAUAGCAGUTT against Nthl1
Ans: inactive

Q: Next sequence up: GCAUCAUAAUGGGAUGCUGTT against Qrfp
Ans: inactive

Q: Next sequence up: GGCAUCCAGACAAGUGAUGTT against Zer1
Ans: inactive

Q: Next sequence up: GGUUCAGUUUGGAAAUGAATT against Rbm26
Ans: inactive

----------
- measurementProtocol: Components of the Cytosolic LPS Sensing Pathway: Gene Identification via Genome-wide siRNA Screen;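 also: robust z of the log signal after scaling to non-targeting control siRNA wells of the plate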
- statedConditions: RAW264.7 macrophages, IL-1a HTRF, actives lie on both sides, screened at 100 nM (by protocol), cells primed 5 h with Pam3CSK4 first
Screen size: about 53,000 sequences; about 3,700 (7%) were called active. Only a selection was taken, and actives are over-represented in it overall.
Provide the reported z-score of each item.
// return a plain number; no unit text

Q: What z-score value was documented for this sequence, GGAAGACUUCGUGUUGACATT against Proz ?
Ans: 0.223

Q: Next sequence up: CCUUACCACAUCCUUGUCGTT against Fcf1
Ans: -1.33

Q: Next sequence up: GGAACACAAUGGGACGAGUTT against Ccl11
Ans: -1.12

Q: Next sequence up: CCGCAGUUGUCUUUCAAGATT against Dcaf1
Ans: 0.724

Q: Next sequence up: CCGAAAAAUAUGUUUUCCGTT against Mettl4
Ans: 2.87

Q: Next sequence up: GGUCCUAAAAUUUCCUCUUTT against Prdx3
Ans: 0.854

Q: Next sequence up: GGACCUGCCAAAAGUUGUGTT against Uqcrc1
Ans: -1.16

Q: Next sequence up: CCCUUGCUAGUCCUUCUAUTT against Bora
Ans: -0.65

Q: Next sequence up: GCCACAUCAGAUGAAGUCCTT against Ppm1e
Ans: -2.26

Q: Next sequence up: CGUGAUUUCAGUGAGGGUGTT against Tarsl2
Ans: 0.996

Q: Next sequence up: CCUUAGCAAUGGGAUUGAUTT against Rasl12
Ans: 0.448

Q: Next sequence up: CCCAACAUUAUCUUGGACCTT against Mrgpra8
Ans: -0.26

Q: Next sequence up: GGCCUACCUAUAGAAAUGATT against Pgap1
Ans: 0.208

Q: Next sequence up: GGCCUUACUCUUAAGUUCUTT against Brf1
Ans: 3.7

Q: Next sequence up: GGAUGAUUAUUGGAGCUAUTT against Vtn
Ans: 0.128

Q: Next sequence up: GCAGACUCAUGCACUUGAATT against Olfr1165-ps
Ans: -0.321

Q: Next sequence up: GGAGGAACUGGAUUCUUACTT against Eps8l3
Ans: -0.348

Q: Next sequence up: GAAUUACACACAGGCCUGATT against Olfr1048
Ans: 0.306

Q: Next sequence up: GCCACUCACUAUGCUACUCTT against Pnpla2
Ans: -2.62

Q: Next sequence up: GGAUUGCCCUGUGGACAAGTT against Nr4a1
Ans: 0.963

Q: Next sequence up: GACAAGGCUUCAUAAAAAGTT against Qrich1
Ans: -0.312

Q: Next sequence up: GGACCAAUUGGAUCCUUUUTT against Olfr1340
Ans: -1.6

Q: Next sequence up: CGUAACUGAGUCAAUUAGUTT against Intu
Ans: 0.128

Q: Next sequence up: GGACCAACGUGCAGAAAUGTT against Metrn
Ans: -0.702

Q: Next sequence up: GGUAACCAAAACAAUUCUGTT against Cog8
Ans: -0.00241

----------
Provide the reported z-score of each item.
- measurementProtocol: Components of the Cytosolic LPS Sensing Pathway: Gene Identification via Genome-wide siRNA Screen;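 also: robust z of the log signal after scaling to non-targeting control siRNA wells of the plate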
- statedConditions: RAW264.7 macrophages, IL-1a HTRF, actives lie on both sides, screened at 100 nM (by protocol), cells primed 5 h with Pam3CSK4 first
The whole screen tested about 53,000 sequences, of which about 3,700 (7%) were called active. Many of the other results were omitted from the sample, so actives are more common in it than they were.
// return a plain number; no unit text

Q: What z-score value was documented for this sequence, GGUGAAAGACCAUUUAUUUTT against Zxdc ?
Ans: 0.657

Q: Next sequence up: CCUGCUAAGUGAAUUUGUGTT against Cmpk1
Ans: 2.18

Q: Next sequence up: CGGGAUAGACUAUAAGACUTT against Rab40c
Ans: 0.612

Q: Next sequence up: GGAUAUGCUGUGAAGUAUUTT against Plekhf2
Ans: 1.68

Q: Next sequence up: GGCAGUUCUCCAGUGCUUUTT against Mtss1
Ans: -1.32

Q: Next sequence up: GGAUCUUUCUUUUCUCUCUTT against Rab6b
Ans: 0.32

Q: Next sequence up: CCCACAGUACAUUCUAAAATT against Arsb
Ans: 0.776

Q: Next sequence up: GGAGGUCACCUUCUCAAACTT against Mrgprf
Ans: 0.374

Q: Next sequence up: GCAGCCUAUUACCUCAGACTT against Nwd2
Ans: 1.02

Q: Next sequence up: GCAGAGACGUGAUUGAUCGTT against H2bc18
Ans: -1.17

Q: Next sequence up: CGUGAAAUAGAUGAUACCUTT against Cdc5l
Ans: 0.625

Q: Next sequence up: GGCCUUUGAUGACAUGUACTT against Bpifb1
Ans: -0.378

Q: Next sequence up: GCCCAGAAUGCUCACUAAATT against Sln
Ans: 0.491

Q: Next sequence up: GCAACCUGUCCCUUCUUGATT against Olfr225
Ans: 1.53

Q: Next sequence up: GGAGUACAUUGUGAAUGUUTT against Tnr
Ans: -1.44

Q: Next sequence up: GGUUAUAGCUUCAAUAGCUTT against Bphl
Ans: -0.61

Q: Next sequence up: GGCCCUAGAAAUAAUCUGCTT against Anks4b
Ans: 0.0338

Q: Next sequence up: CGUAGUACCCAUGAAUUACTT against Adora2a
Ans: 4.87

Q: Next sequence up: GGCCAAAGGCAUCAGGCAUTT against Gsto2
Ans: -1.7

Q: Next sequence up: GGAGAUUUAAACAGCUAGGTT against Gmip
Ans: -0.418

Q: Next sequence up: GGAGCUUAAAGUGAGCGGCTT against Lage3
Ans: -0.859

Q: Next sequence up: CGGUCCAGGAAGAAUGUUUTT against Bckdhb
Ans: -0.781

Q: Next sequence up: GGAAGAUGUCUCCUAUGAGTT against Hebp1
Ans: -2.42

Q: Next sequence up: GGACAGCUGUUUCAAUUCUTT against Il1rap
Ans: -0.162

Q: Next sequence up: GGACGAAAUCUUGUCUGAUTT against Atg4b
Ans: 2.59
